- EXPERIMENTAL_PROTOCOL: Cytotoxicity against human HuH7 cells after 72 hrs by MTS assay
- Assay type: cell-based, Huh-7
Could you please report measured CC50 at 72 h for the items listed next?

Prompt: # lookup: CC50 at 72 h of `CC1(C)C(=O)C=C[C@]2(C)[C@H]3CC[C@@]4(C)[C@H](c5ccoc5)OC(=O)[C@H]5O[C@]54[C@]3(C)[C@H](O)C[C@@H]12`
Response: 105 µM

Prompt: # lookup: CC50 at 72 h of C=C1[C@@H]2CC[C@@]3(C)[C@H](c4ccoc4)OC(=O)C[C@]13O[C@H]1CC(=O)C(C)(C)[C@H](CC(=O)OC)[C@]12C [METHYLANGOLENSATE]
Response: 116 µM

Prompt: # lookup: CC50 at 72 h of CC[C@H](C)C(=O)O[C@@H]1[C@@H]2C(=O)[C@](C)(C3CC[C@]4(C)[C@@H](CC(=O)O[C@H]4c4ccoc4)[C@]34O[C@H]24)[C@@H]([C@@H](O)C(=O)OC)C1(C)C (some centres undefined)
Response: > 200 µM

Prompt: # lookup: CC50 at 72 h of `C/C=C(\C)C(=O)O[C@@H]1[C@H]2C=C3[C@@H]4CC(=O)O[C@@H](c5ccoc5)[C@]4(C)CC[C@@H]3[C@@](C)(C2=O)[C@@H]([C@@H](OC(C)=O)C(=O)OC)C1(C)C`
Response: 83 µM
